Test system: 699152-130-R-J1-PDC complex spheroid viability
Assay: Anticancer human tumor 699152-130-R-J1-PDC patient-derived pancreatic carcinoma cell line growth inhibition [POLQ]
Settings: second compound 0.316 µM; first compound 1 µM; hits give low values
Measured viability, T/C accompanies every entry in the list below.
Give the value in % but do not write % after it.

compound: CCc1cc2c(N3CCc4c(cc(Cn5ccnc5)cc4-c4cn(C)nc4C(F)(F)F)C3=O)cc(C)nc2c(OC)n1 + Cc1cccc(N(C)C(=O)C2C(O)CCN2c2nc(C)cc(C(F)(F)F)c2C#N)c1
measured_number: 103

Okay, now this compound:
## Input Given the compound COc1ccc([C@@H](O)c2cc(-c3ncnc4cc(N5CCOCC5)ccc34)c(F)cc2Cl)nn1 + COC1C(OC(N)=O)C(O)C(Oc2ccc3c(O)c(NC(=O)c4ccc(O)c(CC=C(C)C)c4)c(=O)oc3c2C)OC1(C)C , what is its reported viability, T/C?
## Output 80.4

* * *

Measured viability, T/C accompanies every entry in the list below.
Tested on: 699152-130-R-J1-PDC complex spheroid viability
Assay: Anticancer human tumor 699152-130-R-J1-PDC cell line growth inhibition [POLQ];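 note: spheroids exposed to agents for 7 days before viability reading; percent of DMSO vehicle control viability so 100% = vehicle and 0% = no viable signal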
Details: second compound 3.16 µM; first compound 0.316 µM; hits give low values
Give the value in % but do not write % after it.

Some molecules with known viability, T/C results, for comparison:
molecule: COc1cc(C2c3cc4c(cc3C(OC3OC5COC(C)OC5C(O)C3O)C3COC(=O)C23)OCO4)cc(OC)c1O (configuration not stated) + COC1C(OC(N)=O)C(O)C(Oc2ccc3c(O)c(NC(=O)c4ccc(O)c(CC=C(C)C)c4)c(=O)oc3c2C)OC1(C)C
measured_number: 75.3
//
molecule: C#Cc1c(F)ccc2cc(O)cc(-c3ncc4c(N5CC6CCC(C5)N6)nc(OCC56CCCN5CC(F)C6)nc4c3F)c12 (configuration not stated) + COC1C(OC(N)=O)C(O)C(Oc2ccc3c(O)c(NC(=O)c4ccc(O)c(CC=C(C)C)c4)c(=O)oc3c2C)OC1(C)C
measured_number: 18.8
//
molecule: COc1ccc([C@@H](O)c2cc(-c3ncnc4cc(N5CCOCC5)ccc34)c(F)cc2Cl)nn1 + Nc1ccc(C#CCN(C(=O)Cc2ncc(C(F)(F)F)cc2C(F)(F)F)c2ccc(F)cc2)nn1
measured_number: 90.5
//
molecule: CCc1cc2c(N3CCc4c(cc(Cn5ccnc5)cc4-c4cn(C)nc4C(F)(F)F)C3=O)ccnc2c(OC)n1 + COC1C(OC(N)=O)C(O)C(Oc2ccc3c(O)c(NC(=O)c4ccc(O)c(CC=C(C)C)c4)c(=O)oc3c2C)OC1(C)C
measured_number: 89.6
//
molecule: CCc1cc2c(N3CCc4c(cc(Cn5ccnc5)cc4-c4cn(C)nc4C(F)(F)F)C3=O)cc(C)nc2c(OC)n1 + COC1C(OC(N)=O)C(O)C(Oc2ccc3c(O)c(NC(=O)c4ccc(O)c(CC=C(C)C)c4)c(=O)oc3c2C)OC1(C)C
measured_number: 84.2

## Input What value of viability, T/C on 699152-130-R-J1-PDC complex spheroid viability does O=C(Nc1ccc(O)c(NS(=O)(=O)c2ccc(F)cc2)c1)c1ccc(-c2ccccc2)cc1 + COC1C(OC(N)=O)C(O)C(Oc2ccc3c(O)c(NC(=O)c4ccc(O)c(CC=C(C)C)c4)c(=O)oc3c2C)OC1(C)C have?
## Output 113

## Input Now the molecule O=C(c1cc(Cc2n[nH]c(=O)c3ccccc23)ccc1F)N1CCN(C(=O)C2CC2)CC1 + Cc1cccc(N(C)C(=O)C2C(O)CCN2c2nc(C)cc(C(F)(F)F)c2C#N)c1
## Output 91.1

## Input Now the molecule C=CC(=O)N1CCN(c2nc(=O)n(-c3c(C)ccnc3C(C)C)c3nc(-c4c(O)cccc4F)c(F)cc23)C(C)C1 (configuration not stated) + Cc1cccc(N(C)C(=O)C2C(O)CCN2c2nc(C)cc(C(F)(F)F)c2C#N)c1
## Output 98.8
